- tested system: native human MET on living human cells (human, UniProt P08581 25-1390)
- Sequence (P08581 25-1390): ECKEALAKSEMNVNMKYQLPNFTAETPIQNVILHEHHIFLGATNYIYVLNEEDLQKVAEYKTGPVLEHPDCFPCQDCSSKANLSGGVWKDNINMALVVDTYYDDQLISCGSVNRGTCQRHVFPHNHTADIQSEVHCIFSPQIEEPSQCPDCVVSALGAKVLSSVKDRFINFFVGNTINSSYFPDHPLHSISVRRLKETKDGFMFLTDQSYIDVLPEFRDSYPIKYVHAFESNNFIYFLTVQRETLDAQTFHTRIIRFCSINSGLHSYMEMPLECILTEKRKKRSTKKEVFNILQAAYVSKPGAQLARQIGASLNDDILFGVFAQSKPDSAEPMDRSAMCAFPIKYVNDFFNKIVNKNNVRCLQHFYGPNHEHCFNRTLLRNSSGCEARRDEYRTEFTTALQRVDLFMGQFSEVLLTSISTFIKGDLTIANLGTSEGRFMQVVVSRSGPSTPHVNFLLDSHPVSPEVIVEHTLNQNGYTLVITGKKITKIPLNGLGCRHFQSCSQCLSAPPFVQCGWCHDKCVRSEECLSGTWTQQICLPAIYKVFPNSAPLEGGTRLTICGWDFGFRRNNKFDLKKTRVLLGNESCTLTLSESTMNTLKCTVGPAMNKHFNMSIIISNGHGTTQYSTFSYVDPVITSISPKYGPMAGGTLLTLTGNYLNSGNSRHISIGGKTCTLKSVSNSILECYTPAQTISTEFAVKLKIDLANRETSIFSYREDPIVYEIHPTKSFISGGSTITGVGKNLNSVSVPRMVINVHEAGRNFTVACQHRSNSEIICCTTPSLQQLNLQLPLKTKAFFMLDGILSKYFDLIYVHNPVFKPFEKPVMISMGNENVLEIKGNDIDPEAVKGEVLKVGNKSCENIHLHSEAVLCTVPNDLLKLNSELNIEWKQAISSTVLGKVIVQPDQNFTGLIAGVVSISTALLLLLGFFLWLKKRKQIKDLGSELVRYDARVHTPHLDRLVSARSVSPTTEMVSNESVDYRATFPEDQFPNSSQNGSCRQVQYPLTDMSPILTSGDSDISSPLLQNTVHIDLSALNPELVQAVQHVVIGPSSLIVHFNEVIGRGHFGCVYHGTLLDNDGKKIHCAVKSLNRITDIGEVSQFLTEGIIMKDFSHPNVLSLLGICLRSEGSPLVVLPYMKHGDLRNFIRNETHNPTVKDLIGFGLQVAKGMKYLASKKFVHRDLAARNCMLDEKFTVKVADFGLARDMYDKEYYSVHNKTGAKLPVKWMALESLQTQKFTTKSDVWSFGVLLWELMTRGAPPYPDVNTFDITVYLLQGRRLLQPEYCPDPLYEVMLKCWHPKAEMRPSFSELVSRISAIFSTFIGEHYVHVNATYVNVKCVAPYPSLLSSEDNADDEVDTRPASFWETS
- protocol notes: cell-based or functional assay
attribute measured: cell scattering score, HPAF-II, 9.000 nM (score 0-4)
Numbers only; they are read as score 0-4.

Please review the following examples before continuing.
binder	unit string	cell scattering score, HPAF-II, 9.000 nM
chimeric llama-human IgG1 mAb 71D6 (antibody, V domains shown) VH: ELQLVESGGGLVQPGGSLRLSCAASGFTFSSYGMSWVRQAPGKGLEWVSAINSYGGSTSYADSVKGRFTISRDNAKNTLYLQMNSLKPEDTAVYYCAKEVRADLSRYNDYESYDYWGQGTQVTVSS VL: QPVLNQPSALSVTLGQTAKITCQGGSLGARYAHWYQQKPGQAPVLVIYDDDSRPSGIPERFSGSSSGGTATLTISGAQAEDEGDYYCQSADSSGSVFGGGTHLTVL	score 0-4	4
chimeric llama-human IgG1 mAb 72F8 (antibody, V domains shown) VH: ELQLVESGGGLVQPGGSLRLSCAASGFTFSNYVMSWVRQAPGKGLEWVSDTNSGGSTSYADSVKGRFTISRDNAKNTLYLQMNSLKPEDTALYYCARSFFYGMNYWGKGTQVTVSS VL: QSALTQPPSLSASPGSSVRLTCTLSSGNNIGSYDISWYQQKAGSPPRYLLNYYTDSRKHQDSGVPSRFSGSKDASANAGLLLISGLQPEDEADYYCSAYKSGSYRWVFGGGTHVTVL	score 0-4	3
chimeric llama-human IgG1 mAb 76H10 (antibody, V domains shown) VH: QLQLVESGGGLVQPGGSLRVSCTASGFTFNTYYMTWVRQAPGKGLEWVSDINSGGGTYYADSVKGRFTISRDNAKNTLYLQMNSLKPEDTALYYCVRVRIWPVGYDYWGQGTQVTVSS VL: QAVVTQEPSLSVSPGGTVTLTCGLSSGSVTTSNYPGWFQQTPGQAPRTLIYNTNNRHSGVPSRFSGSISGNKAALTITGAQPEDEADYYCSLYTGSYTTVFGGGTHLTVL	score 0-4	3
chimeric llama-human IgG1 mAb 71G3 (antibody, V domains shown) VH: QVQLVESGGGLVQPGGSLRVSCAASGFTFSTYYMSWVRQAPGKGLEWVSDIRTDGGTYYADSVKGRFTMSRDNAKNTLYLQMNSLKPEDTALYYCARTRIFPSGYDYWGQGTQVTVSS VL: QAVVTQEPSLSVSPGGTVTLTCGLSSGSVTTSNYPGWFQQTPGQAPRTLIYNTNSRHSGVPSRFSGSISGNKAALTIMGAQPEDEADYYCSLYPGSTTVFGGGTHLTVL	score 0-4	4

Here's the next entry for you.
## Task Please report the measured cell scattering score, HPAF-II, 9.000 nM for chimeric llama-human IgG1 mAb 71D4 (antibody, V domains shown) VH: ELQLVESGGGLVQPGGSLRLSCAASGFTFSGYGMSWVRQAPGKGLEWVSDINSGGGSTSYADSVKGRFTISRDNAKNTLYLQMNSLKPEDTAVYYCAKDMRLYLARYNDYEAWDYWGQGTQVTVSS VL: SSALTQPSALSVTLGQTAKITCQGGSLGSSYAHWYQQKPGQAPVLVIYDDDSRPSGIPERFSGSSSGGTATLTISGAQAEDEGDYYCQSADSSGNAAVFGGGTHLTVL
## Result 2
